For each entry below, report its IC50 value.
# Tested on: NCI-H358 cells (express KRas G12C), Phospho-ERK
# ASSAY_DETAILS: Cellular inhibition of KRas G12C: Phospho-ERK in NCI-H358 cells
# Assay type: cell-based
# CONDITION_SET: Homo sapiens, NCI-H358, 3 h, pERK(Thr202/Tyr204) normalized with GAPDH; NCI-H358 cells; 3 hours; read-out: IC50

Sure, the documented IC50 for CC#CC(=O)N1CCN(c2nc(OC[C@@H]3CCCN3C)nc3c2CCN(c2cccc4cccc(C)c24)C3)C[C@@H]1CC#N [Example 455] is 0.1 to 1000 nM

Sure, the documented IC50 for C=CC(=O)N1CCN(c2nc(OC[C@@H]3C[C@@H](OC)CN3C)nc3c2CCN(c2cccc4ccccc24)C3)C[C@@H]1CC#N [Example 327] is 0.1 to 1000 nM

Sure, the documented IC50 for C=CC(=O)N1CCN(c2nc(OCCN(CC)CC)nc3c2CCN(c2cc(O)cc4ccccc24)C3)CC1 [Example 102] is 0.1 to 1000 nM

Sure, the documented IC50 for C=CC(=O)N1CCN(c2nc(OC[C@H]3CN(C)C(C)(C)CO3)nc3c2CCN(c2cccc4ccccc24)C3)C[C@@H]1CC#N [Example 450] is 0.1 to 1000 nM

Sure, the documented IC50 for C=CC(=O)N1CCN(c2nc(OCC3CN(C)CCN3C)nc3c2CCN(c2cc(O)cc4ccccc24)C3)CC1 (centres unmarked) [Example 219] is > 1000 nM

Sure, the documented IC50 for C=CC(=O)N1CCN(c2nc(O[C@H](C)CN(C)C)nc3c2CCN(c2cc(O)cc4ccccc24)C3)CC1 [Example 19] is 0.1 to 1000 nM

Sure, the documented IC50 for C=CC(=O)N1CCN(c2nc(OC[C@@H]3[C@H](F)CCN3C)nc3c2CCN(c2cccc4ccccc24)C3)C[C@@H]1CC#N [Example 438] is 0.1 to 1000 nM

Sure, the documented IC50 for C=CC(=O)N1CCN(c2nc(OCCO)nc3c2CCN(c2cc(O)cc4ccccc24)C3)CC1 [Example 142] is > 1000 nM

Sure, the documented IC50 for C=CC(=O)N1CCN(c2nc(OCCCCN(C)C)nc3c2CCN(c2cc(O)cc4ccccc24)C3)CC1 [Example 40] is 0.1 to 1000 nM

Sure, the documented IC50 for C=CC(=O)N1CCN(c2nc(OC[C@@H]3CCCN3C)nc3c2CCN(c2cccc4ccccc24)C3)C[C@H]1C [Example 201] is > 1000 nM

Sure, the documented IC50 for C=CC(=O)N1CCN(c2nc(OC[C@@H]3CCCN3C)nc3c2CCN(c2ccccc2CC(F)(F)F)C3)CC1CC#N (some centres unmarked) [Example 240] is > 1000 nM

Sure, the documented IC50 for C=CC(=O)N1CCN(c2ncnc3c2CCN(c2cccc4ccc(O)cc24)C3)CC1 [Example 2] is > 1000 nM

Sure, the documented IC50 for C=CC(=O)N1CCN(c2nc(OC[C@H]3CCCN3C)nc3c2CCN(c2cccc(Cl)c2C(F)(F)F)C3)C[C@@H]1CC#N [Example 319] is 0.1 to 1000 nM

Sure, the documented IC50 for C=CC(=O)N1CCN(c2nc(OCC3CCN(Cc4ccccc4)C3)nc3c2CCN(c2cc(O)cc4ccccc24)C3)CC1 (centres unmarked) [Example 189] is > 1000 nM

Sure, the documented IC50 for C=CC(=O)N1CCN(c2nc(OCCN3C[C@@H]4CC[C@H]3C4)nc3c2CCN(c2cc(O)cc4ccccc24)C3)CC1 [Example 77] is 0.1 to 1000 nM

Sure, the documented IC50 for C=CC(=O)N1CCN(c2nc(N3CCC(N(C)C)C3)nc3c2CCN(c2cc(O)cc4ccccc24)C3)CC1 (centres unmarked) [Example 13] is > 1000 nM

Sure, the documented IC50 for C=CC(=O)N1CCN(c2nc(OC[C@H]3CCN(C)C3)nc3c2CCN(c2cc(O)cc4ccccc24)C3)CC1 [Example 188] is 0.1 to 1000 nM

Sure, the documented IC50 for C=CC(=O)N1CCN(c2nc(OC[C@@H]3CCCN3C)nc3c2CCN(c2cccc(C)c2C(F)(F)F)C3)C[C@@H]1CC#N [Example 364] is 0.1 to 1000 nM

Sure, the documented IC50 for C=CC(=O)N1CCN(c2nc(OC[C@H]3COCCN3C)nc3c2CCN(c2cccc4ccccc24)C3)CC1CC#N (some centres unmarked) [Example 273] is > 1000 nM

Sure, the documented IC50 for C=CC(=O)N1CCN(c2nc(OC[C@@H]3CCCN3C)nc3c2CCN(c2ccncc2C(F)(F)F)C3)CC1CC#N (some centres unmarked) [Example 239] is > 1000 nM
